FYI, the data here is from the Human Domainome abundance scans (Beltran et al. 2025).

B1: Transcription intermediary factor 1-beta, residues 620 to 671; numbered along this chain, Q13263 (parent)
chain: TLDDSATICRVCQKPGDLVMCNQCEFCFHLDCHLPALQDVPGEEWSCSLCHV

variants of: B1; assay: abundance fitness (aPCA) (normalised: wild type 0, dead -1); higher = more abundant; growth selection in yeast, the domain comes from the species named; conditions: Homo sapiens
endpoint: abundance fitness
Answer as a number with no unit attached.

Previously resolved entries follow.
> print(dat)
   variant.code  number
1          V11M   0.059
2          N22M  -0.337
3          E25K  -0.228
4           D3Q  -0.603
5           I8H  -0.123

Problem: # abundance fitness lookup, item "L30K"
Solution: -0.312

Problem: # abundance fitness lookup, item "S5N"
Solution: -0.444

Problem: # abundance fitness lookup, item "V52Y"
Solution: -0.284

Problem: # abundance fitness lookup, item "D3W"
Solution: -0.302

Problem: # abundance fitness lookup, item "C47N"
Solution: -0.382

Problem: # abundance fitness lookup, item "W45R"
Solution: -0.131

Problem: # abundance fitness lookup, item "L49F"
Solution: 0.192

Problem: # abundance fitness lookup, item "T7F"
Solution: -0.383

Problem: # abundance fitness lookup, item "C50L"
Solution: -0.797

Problem: # abundance fitness lookup, item "T1V"
Solution: -0.043

Problem: # abundance fitness lookup, item "L18E"
Solution: -0.374
